Test system: SK-MEL-5
Assay: NCI tumour cell line growth inhibition, 48 h
Calls of active or inactive are those of the source. No stated cut-off is given here; in the data, active = GI50 up to about 1.1 µM and inactive = higher.
Field 'call' accepts YES (active), NO (inactive)

// query Which outcome was entered for the compound COc1ccc(N2CCN(c3ccc4c(c3)NCC(=O)N4)CC2)cc1 in this test?
// result NO

// query Input C=C1C(=O)O[C@@H]2C=C(C)C3=CC(=O)[C@](C)(C[C@H](OC(=O)/C(C)=C\C)[C@@H]12)O3
// result YES

// query Then N#Cc1c(O)cc(=O)n2c1[nH]c1ccccc12 ?
// result NO

// query Try CC1=C(C(=O)CC(=O)C(=O)Nc2cccc(C)c2C)Sc2ccccc2N1 next.
// result NO

// query Param item: COc1ccccc1N1C(=O)C2c3[nH]c4ccccc4c3C3CCC(C(C)(C)C)CC3C2C1=O (stereo not given)
// result NO

// query Query O=C1Oc2ccccc2C(=O)/C1=C/NC(=S)NCc1ccccc1 next
// result NO

// query Entry to check: N#CCCN(CCC#N)c1ccc(/C=C2\N=C(c3ccccc3)N(NC(N)=S)C2=O)cc1
// result NO

// query Thanks! And CC(C)(C)OC(=O)N(CCCCNC(=O)OCc1ccccc1)CCCNC(=O)OCc1ccccc1 ?
// result NO

// query Please do the same for O=C1CCCC2=C1CC1=C(CCCC1=O)N2c1ccc(-c2ccccc2)cc1 as well.
// result NO

// query How about this compound: CN1CCc2c1nc(-c1cccnc1)c1c2N(C)CC1
// result NO

// query Quick one: Cn1c2ccc(Cl)cc2c2ccc3c(c21)C(=O)C=CC3=O
// result NO

// query Another compound to check: O=C(c1ccccc1)c1c(C(=O)c2ccccc2)c(-c2ccccc2)c2c(-c3ccccc3)sc(-c3ccccc3)c2c1-c1ccccc1
// result NO

// query Can you handle COc1ccccc1NC(=S)NN=C(C)c1cccc(C(C)=NNC(=S)Nc2ccccc2OC)n1 next?
// result NO

// query S=C(Nc1cccc(Cl)c1)Nc1ccccn1 ?
// result NO

// query Also CCN(CC)c1ccc(/C=C2\CCc3ccc([N+](=O)[O-])cc3C2=O)cc1 , if possible.
// result NO

// query Then what about the compound OC1OC(c2ccco2)C(F)(F)C(F)(F)C1(F)F (stereo not given) ?
// result NO

// query Likewise for Cc1nc(O)nc(NNCc2ccc(Cl)cc2)c1C(=O)Nc1ccc(Cl)cc1 ?
// result NO

// query Cc1c2ccncc2c(C)c2c1[nH]c1ccc(OCC(F)(F)F)cc12 ?
// result NO

// query Request: O=C1CSC(C(/N=N/c2ccccc2)=C2Nc3ccccc3N2)=N1
// result NO

// query Okay, and Cc1ccc(C(=O)Nc2ccc(CP(=O)(O)O)cc2)cc1NC(=O)c1cccc(NC(=O)Nc2cccc(C(=O)Nc3cc(C(=O)Nc4ccc(CP(=O)(O)O)cc4)ccc3C)c2)c1 ?
// result NO

* * *

System: UO-31
Experiment: NCI tumour cell line growth inhibition, 48 h
Calls of active or inactive are those of the source. Cut-off read from the data, not from the text of the source: active = GI50 up to about 1.1 µM and inactive = higher.
For each of the compounds below, state its GI50.

// query Which GI50 value belongs to Oc1cccc(-c2nc3cc(F)ccc3s2)c1 ?
// result 14.5 µM (inactive)

// query Then this compound: Cc1ccsc1/C(S)=N\c1ccc(Cl)c(/C=N/OC(C)(C)C)c1
// result 20.6 µM (inactive)

// query Quick one: CC(Br)C(=O)c1ccc2cc(Br)c3ccccc3c2c1 (stereo not given)
// result 17.6 µM (inactive)

// query Then what about the compound O=C1c2ccccc2C2(O)Nc3c(ccc4ccccc34)C12O (stereo not given) ?
// result 95.5 µM (inactive)

// query Now give it for COc1ccccc1-c1nc[nH]c1-c1ccccc1OC too.
// result 45.1 µM (inactive)

// query Could you do the same for CC(C)=CCC/C(C)=C/Cc1cc(/C=C/c2cc(O)c(CC=C(C)C)c(O)c2)cc(O)c1O , please?
// result 1.29 µM (inactive)

// query Next compound: CCCC(C(=O)OC)C1N/C(=N/C#N)N(Cc2ccccc2)C1=O (stereo not given)
// result 67.1 µM (inactive)

// query And what about the compound COC(=O)/C(=C\Nc1cccc(C)n1)S(=O)(=O)c1ccc(C)cc1 ?
// result 36.4 µM (inactive)

// query COC(=O)c1c(C#C[Si](C)(C)C)c(C#C[Si](C)(C)C)c(C#C[Si](C)(C)C)c(C#C[Si](C)(C)C)c1C(=O)OC ?
// result > 100 µM (inactive)

// query Also check CC1CC(=O)N(N(C)C)C2(C#N)C(=O)N=C(N)C12C#N (stereo not given)
// result > 100 µM (inactive)

* * *

System: K562
Assay: NCI tumour cell line growth inhibition, 48 h
Active and inactive are the calls of the source. No stated cut-off is given here; in the data, active = GI50 up to about 1.1 µM and inactive = higher.
Give one outcome, nothing more. List: 1 (active), -1 (inactive)

// query Per the records of this test, what outcome belongs to CCC(C#N)N(Cc1ccc(CN(C(=O)c2ccccc2)C(C#N)CC)cc1)C(=O)c1ccccc1 (stereo not given) ?
// result -1

// query What about CC(C)=CCC/C(C)=C/CC/C(C)=C/CC/C=C(\C)CC/C=C(\C)CCC1SC1(C)C (stereo not given) ?
// result -1

// query Queued: O=C(NN1C(=O)C(Cl)C1c1cccc(Cl)c1)c1ccccc1O (stereo not given)
// result -1

// query Would you mind doing C[C@]12CCC(=O)C=C1CC[C@@H]1C2CC[C@]2(C)Nc3c(ncn3-c3ccc(F)cc3)CC12 (stereo not given in full) as well?
// result -1

// query What would you report for CNC(=S)N/N=C1\CC(c2ccccc2)Oc2ccccc21 (stereo not given) ?
// result -1

// query Repeat with O=C(NS(=O)(=O)Nc1ccc(Cl)cc1)OCc1ccc(Cl)cc1Cl
// result -1

// query How about this compound: COc1cc(CC(=O)c2ccc3c(c2)OCO3)cc(OC)c1OC
// result -1

// query Next entry: CCN1/C(=C/C#C/C(C)=C\c2sc3ccccc3[n+]2CC)Sc2ccccc21
// result 1

// query Queued: CNC(=O)SCC(NC(=O)CCC(N)C(=O)O)C(=O)NCC(=O)O (stereo not given)
// result -1

// query Follow-up item: CN(C)C1(c2cc3ccccc3s2)CCCCC1
// result -1

* * *

System: SN12C
Assay: NCI tumour cell line growth inhibition, 48 h
The source made the active and inactive calls. Rule as the data show it: active = GI50 up to about 1.1 µM and inactive = higher.
Assign GI50 to each entry below.

// query Which GI50 is listed for CC1(C)CCCCCCCCCC2CC2CCC(C)(C)C1=O (stereo not drawn) ?
// result 18.4 µM (inactive)

// query Do the same for CCC1C(=O)OCc2c1cc1n(c2=O)Cc2cc3ccccc3nc2-1 (stereo not drawn) please
// result 5.07 µM (inactive)

// query Repeat for the following molecule: O=C1C2=C(C3=NCCc4c[nH]c1c43)C1(C=C(Br)C(O)C(Br)=C1)CCN2 (stereo not drawn)
// result 1.29 µM (inactive)

// query Entry to check: CC(C)CCNC(=O)c1ccc(CNC(=O)/C=C/c2ccc3ccccc3c2)cc1
// result > 100 µM (inactive)

// query Would you kindly repeat that for N#CC12Cc3cc4c(cc3-c3cccc(c31)CCN2C(=O)c1ccccc1)OCO4 (stereo not drawn) ?
// result > 100 µM (inactive)

// query Would you mind doing CC(=O)C1=C(O)/C(=C\c2ccco2)OC1=O as well?
// result > 10 µM (inactive)

// query Cool, now Cc1c2c(nc3ccccc13)C(=O)c1cccnc1C2=O
// result 5.79 µM (inactive)

// query Moving on to the next molecule: CC(CO)CCNc1ncnc2c1ncn2CCC(=O)OC(C)(C)C (stereo not drawn)
// result > 100 µM (inactive)

* * *

System: IGROV-1
Assay: NCI tumour cell line growth inhibition, 48 h
Active and inactive are the calls of the source. No stated cut-off is given here; in the data, active = GI50 up to about 1.1 µM and inactive = higher.
Pick one: true (1) = active, false (0) = inactive

// query Which outcome did this test record for the molecule C=C1C(=O)O[C@@H]2C=C(C)C3=CC(=O)[C@](C)(C[C@H](OC(=O)/C(C)=C\C)[C@@H]12)O3 ?
// result true (1)

// query And Cn1nc(-c2ccccc2)c2c(/C=C/c3ccc(F)cc3)onc2c1=O ?
// result false (0)

// query Please answer likewise for O=C(CC(=O)c1ccccc1)C(=O)NC12CC3CC(CC(C3)C1)C2
// result false (0)

// query Please answer likewise for O=C1C2=C(C3=NCCc4c[nH]c1c43)C1(C=C(Br)C(O)C(Br)=C1)CCN2 (centres undefined)
// result true (1)

// query What about O=C1c2ccccc2C2(O)Nc3c(ccc4ccccc34)C12O (centres undefined) ?
// result false (0)

// query Repeat for the following molecule: CSc1nc(Cl)c2c(n1)Sc1nc3cc4c(cc3n1C2O)OCCO4 (centres undefined)
// result true (1)

// query Also Cc1ccc(C(=O)Nc2ccc(CP(=O)(O)O)cc2)cc1NC(=O)c1cccc(NC(=O)Nc2cccc(C(=O)Nc3cc(C(=O)Nc4ccc(CP(=O)(O)O)cc4)ccc3C)c2)c1 ?
// result false (0)

// query Would you kindly repeat that for COc1cc2c(cc1O)[C@@H]1Cc3c(cc(OC)c(OC)c3Oc3cc4c(cc3OC)CCN(C)[C@@H]4Cc3ccc(O)cc3)[C@H](C2)N1C ?
// result false (0)

// query Another molecule to look at: COc1ccc2c(c1)[n+]([O-])c(-c1ccc(Cl)c(Cl)c1)c(N)[n+]2[O-]
// result false (0)

// query # repeat for O=c1[nH]c(=O)n(COCCOCc2ccccc2)cc1Nc1ccccc1
// result false (0)

// query Check CCSC1(SCC)CC(Cc2ccc(OC)cc2)N(/C=N/C(C)(C)C)C1 (centres undefined) too.
// result false (0)

// query What about COC(=O)C1=C(O)C(C(=O)OC)[C@]2(O)[C@H](C(=O)OC)[C@H]1C[C@@H](c1ccc(Cl)cc1)[C@H]2C(=O)OC (some centres undefined) ?
// result false (0)

// query Further, for C=CCC1(CN(C)C)CC/C(=C\c2cc(OC)c(OC)c(OC)c2)C1=O (centres undefined) ?
// result false (0)

// query And for C=CCC(CNC(=O)OCc1ccccc1)O[Si](C)(C)C(C)(C)C (centres undefined) ?
// result false (0)

// query Query NC(=O)Nc1c([N+](=O)[O-])cc(C(F)(F)F)cc1[N+](=O)[O-] next
// result false (0)

// query Cool, now C[C@]12CCC(=O)C=C1CC[C@@H]1C2CC[C@]2(C)Nc3c(ncn3-c3ccc(F)cc3)CC12 (some centres undefined)
// result false (0)

// query Same thing, different molecule: Oc1cccc(-c2nc3cc(F)ccc3s2)c1
// result false (0)

// query Follow-up entry: O=C(O)c1ccc2[nH]c(=O)oc2c1
// result false (0)

// query What do you get for CCCC(C(=O)OC)C1N/C(=N/C#N)N(Cc2ccccc2)C1=O (centres undefined) ?
// result false (0)
